FYI, the data here is from the DeepSol protein solubility set.

- EXPERIMENTAL_PROTOCOL: soluble on expression in E. coli; label from the status in PepcDB or PDB records

RESIDUE_STRING	soluble on expression in E. coli
MRAHEIEYKLYGDDMQFVEIELDPEESVIAEAGAMMMMEDYIEMETIFGDGSGPSGGLFGKLMGAGKRLVTGESMFMTVFTNTGHGKRHVSFAAPYPGKIIPVDLTEYQGKVVCQKDAFLCAAKGVSLGIEFTKKIGTGFFGGEGFIMQKLEGDGLAFMHAGGTVYKRELKPGEKLRIDTGCLVAMTKDINYDVEFVGKVKTALFGGEGLFFATLEGPGTVWIQSLTLSRLAARLTSPAAQSTGEGSVLGGLGRLLDGKE	not soluble
MGSDKIHHHHHHMEFQLDKDWRLQPIKGATGQTYMGIKETEKVFIKRNTSPLLAALSKEGLAPKMIWTKRTANGDVLTAQEWLEGRLLHADEIGKRNDVIDVLYQLHHSNLLKDMLKKIGGEVCTPLTMLKEYKRQLPKELKRNSYLKEVITYLYNHLPEYPETSYVAVHGDVNHRNWLVSNNYLYLVDWDSVMVADPAVDLGMILSHYVPRSGWNQWLLSYGLIPNESTVQRIYWYGLFSFLQEIVRHHQEGERRAMTAEILQLKRMFSI	not soluble
MSLAKYKRVVLKLSGEALAGEQGYGIDPEVIQSIASQIKEIVELDVEVAVVVGGGNIWRGMAGSAKGMDRATADYMGMLATVMNSLALQDSLENLDVQSRVQTSIEMRQVAEPYIRRRAIRHLEKKRVVIFAAGTGNPYFSTDTTAALRAAEIEAEVILMAKNKVDGVYNAEPSVDVNAKKYTSISYLDVLKEGLAVMDSTASSLCMDNNIPLIVFSIMEEGNIKKAVLGEEIGTVVRGSNEGHHHHHH	soluble
GEMDERLLQKYRAQVFEWGGCFDKMFEALKSLIYLSEFENSEFDDEERHLLTLCIKHKISDYRTMTSQVLQEQTKQLNNDELVKICSEYVFSLRKDIKAFLQSFEDCVDRLVEKSFFSKFFKLKVKSDISRYKLEFGLCSLEDSKKIHQDAFTLLCEHPDKIEQLPLGFIQNLAYILSEKYGEKKQVFNMLNSLGKILELQIKEQENMDRKAQITVYLQGIKDYIEK	soluble
